Sourced from patent US20260274895A1

- Assay info: in vivo
- Measurement conditions: male, Swiss Albino, mouse, po, 10 mg/kg, Plasma concentration
Where a SMILES comes first, the peptide text is derived from it. [ ]: non-standard residue; d: D form. dNMeI = CC[C@@H](C)[C@@H](NC)C(=O)O; NMeL = CN[C@@H](CC(C)C)C(=O)O
Measurement name: level at 24 h (ng/mL)
Give the number; ng/mL is assumed, so skip it.

Query: level at 24 h; subject: CC[C@@H](C)[C@H]1NC(=O)[C@H]([C@@H](C)CC)NC(=O)[C@H](CC(C)C)N(C)C(=O)[C@H]2CCCN2C(=O)[C@@H]([C@H](C)CC)NC(=O)[C@@H]([C@H](C)CC)N(C)C(=O)[C@H](CC(C)C)NC(=O)[C@H]2CCCN2C(=O)[C@@H]2CCCN2C(=O)[C@H](C(C)C)NC(=O)[C@H]2CCCN2C1=O [Design D11.3, VPpL*iip*LIip] (cyclo(I[dI][dP]VP[dP]L[dNMeI][dI][dP][NMeL])) 95

###

- Measurement conditions: PAMPA, PAMPA_Papp_Avg (apparent permeability)
Where a SMILES comes first, the peptide text is derived from it. [ ]: non-standard residue; d: D form. NMeL = CN[C@@H](CC(C)C)C(=O)O; dNMeL = CN[C@H](CC(C)C)C(=O)O; dNMeA = CN[C@H](C)C(=O)O
Measurement name: Papp (×10⁻⁶ cm/s)
Give the number; ×10⁻⁶ cm/s is assumed, so skip it.

CC(C)C[C@@H]1C(=O)N[C@H](C)C(=O)N[C@@H](C(C)C)C(=O)N2CCC[C@@H]2C(=O)N[C@H](C(C)C)C(=O)N2CCC[C@@H]2C(=O)N2CCC[C@H]2C(=O)N[C@H](C)C(=O)N(C)[C@H](CC(C)C)C(=O)N1C [Design D9.29, vpPa*l*laVp] (cyclo([dA][dNMeL][dNMeL][dA]V[dP][dV][dP]P))    0.664
CC[C@H](C)[C@@H]1NC(=O)[C@H](C(C)C)NC(=O)[C@@H](CC(C)C)N(C)C(=O)[C@H](Cc2ccccc2)NC(=O)[C@@H](CC(C)C)N(C)C(=O)[C@@H](C)N(C)C(=O)[C@H]2CCCN2C(=O)[C@@H]2CCCN2C(=O)[C@H](CC(C)C)NC(=O)[C@@H](C)N(C)C(=O)[C@@H]2CCCN2C1=O [Design D11.20, P*aLPp*a*lF*lVI] (cyclo(F[dNMeL]VIP[dNMeA]LP[dP][dNMeA][dNMeL]))    1.1

Attention now shifts to the item below.
Query: Papp; subject: CC(C)C[C@H]1NC(=O)[C@H]2CCCN2C(=O)[C@H](CC(C)C)N(C)C(=O)[C@@H](C)N(C)C(=O)[C@@H](Cc2ccccc2)NC(=O)[C@@H](C(C)C)NC(=O)[C@H]2CCCN2C(=O)[C@@H](CC(C)C)NC1=O [Design D8.19, f*a*Lpllpv] (cyclo([NMeL][dP][dL][dL][dP][dV][dF][dNMeA])) 0.626

###

- Assay info: Pharmacokinetics of D10.1 after PO, SQ and IV dosing in mice
- Measurement conditions: mouse, in vivo, sc, 12.2 mg/kg
Measurement name: half-life (h)
Give the number; h is assumed, so skip it.

Query: half-life; subject: CC[C@H](C)[C@@H]1NC(=O)[C@@H](CC(C)C)NC(=O)[C@H](CC(C)C)N(C)C(=O)[C@H](Cc2ccccc2)NC(=O)CN(C)C(=O)[C@@H]2CCCN2C(=O)[C@H](C(C)C)NC(=O)[C@H](Cc2ccccc2)N(C)C(=O)[C@H]2CCCN2C(=O)[C@H](CC(C)C)NC1=O 3.76

###

- Measurement conditions: PAMPA
Where a SMILES comes first, the peptide text is derived from it. [ ]: non-standard residue; d: D form. NMeI = CC[C@H](C)[C@H](NC)C(=O)O; NMeL = CN[C@@H](CC(C)C)C(=O)O; dNMeL = CN[C@H](CC(C)C)C(=O)O; NMeV = CN[C@H](C(=O)O)C(C)C; NMeA = CN[C@@H](C)C(=O)O; dNMeA = CN[C@H](C)C(=O)O
Reported values of PAMPA_Papp_Avg (apparent permeability) for individual entries
Give the number; ×10⁻⁶ cm/s is assumed, so skip it.

These recorded examples may help you get a feel for the data.
CC[C@H](C)[C@@H]1NC(=O)[C@H](C(C)C)N(C)C(=O)[C@H]2CCCN2C(=O)[C@H]([C@@H](C)CC)NC(=O)[C@@H](CC(C)C)N(C)C(=O)[C@@H](C)NC(=O)[C@@H]2CCCN2C(=O)[C@H]2CCCN2C(=O)[C@H](CC(C)C)NC(=O)[C@@H](Cc2ccccc2)NC(=O)[C@H](CC(C)C)NC(=O)[C@H]2CCCN2C1=O [Design D12.3, p*VIpLfLpPa*lI] (cyclo([dA][dNMeL]I[dP][NMeV]I[dP]L[dF]L[dP]P))    0.789
CC(C)C[C@@H]1NC(=O)[C@@H](CC(C)C)N(C)C(=O)[C@@H](CC(C)C)N(C)C(=O)[C@@H](CC(C)C)N(C)C(=O)[C@H](CC(C)C)NC(=O)[C@@H]2CCCN2C(=O)[C@H]2CCCN2C(=O)[C@H](Cc2ccccc2)NC1=O [SEQ ID NO 47, FpPL*l*l*lL] (cyclo(L[dNMeL][dNMeL][dNMeL]LF[dP]P))    1.27
CC(C)C[C@@H]1NC(=O)[C@@H](CC(C)C)NC(=O)[C@H]2CCCN2C(=O)[C@@H]2CCCN2C(=O)[C@@H](CC(C)C)NC(=O)[C@@H](CC(C)C)N(C)C(=O)[C@@H]2CCCN2C1=O [Design D7.5, LP*llPpl] (cyclo(LP[dNMeL][dL]P[dP][dL]))    6.64

Query: PAMPA_Papp_Avg (apparent permeability); subject: CC[C@H](C)[C@@H]1NC(=O)CNC(=O)[C@@H]2CCCN2C(=O)[C@H]2CCCN2C(=O)[C@H]([C@@H](C)CC)NC(=O)[C@@H](C)N(C)C(=O)[C@@H]2CCCN2C(=O)[C@H](C(C)C)NC(=O)[C@@H](CC(C)C)NC1=O [Design D9.33, pPGIlVP*aI] (cyclo(GI[dL]VP[dNMeA]I[dP]P)) 0.317

Same question, CC(C)C[C@@H]1C(=O)N[C@H](C)C(=O)N(C)[C@H](CC(C)C)C(=O)N2CCC[C@@H]2C(=O)N[C@H](CC(C)C)C(=O)N[C@@H](C)C(=O)N[C@H](CC(C)C)C(=O)N2CCC[C@@H]2C(=O)N1C [Design D8.25, lp*la*lplA] (cyclo(A[dL][dP][dNMeL][dA][dNMeL][dP][dL])) this time 0.824

Same question, CC(C)C[C@@H]1NC(=O)[C@H](C(C)C)NC(=O)[C@@H](CC(C)C)N(C)C(=O)[C@H](C)NC(=O)[C@@H](CC(C)C)N(C)C(=O)[C@@H]2CCCN2C(=O)[C@H]2CCCN2C(=O)[C@H](C)N(C)C(=O)[C@H]2CCCN2C(=O)[C@@H](CC(C)C)NC1=O [Design D10.35, Llp*ApP*LA*lV] (cyclo([dNMeL]A[dNMeL]VL[dL][dP][NMeA][dP]P)) this time 0.279

Same question, CC[C@@H](C)[C@H]1NC(=O)[C@@H](Cc2ccccc2)NC(=O)[C@H](CC(C)C)NC(=O)[C@@H](C)N(C)C(=O)[C@@H](CC(C)C)NC(=O)[C@H](CC(C)C)NC(=O)[C@H]2CCCN2C(=O)[C@@H]2CCCN2C(=O)[C@@H](C)NC(=O)[C@H]2CCCN2C1=O [Design D10.37, l*aLfipaPpL] (cyclo(L[dF][dI][dP][dA]P[dP]L[dL][dNMeA])) this time 0.654

Same question, CC(C)C[C@@H]1C(=O)N[C@H](CC(C)C)C(=O)N2CCC[C@@H]2C(=O)N2CCC[C@H]2C(=O)N(C)[C@H](CC(C)C)C(=O)N[C@H](CC(C)C)C(=O)N2CCC[C@@H]2C(=O)N2CCC[C@H]2C(=O)N1C [Design D8.4, pP*llpP*ll] (cyclo([dNMeL][dL][dP]P[dNMeL][dL][dP]P)) this time 0.136

Same question, CC[C@H](C)[C@H]1C(=O)N[C@H](C)C(=O)N[C@@H](CC(C)C)C(=O)N[C@@H](C(C)C)C(=O)N2CCC[C@@H]2C(=O)N(C)[C@@H](CC(C)C)C(=O)N[C@@H](C(C)C)C(=O)N2CCC[C@H]2C(=O)N(C)[C@H](CC(C)C)C(=O)N[C@@H](C(C)C)C(=O)N1C [Design D10.19, aLVp*LVP*lV*I] (cyclo(LV[dP][NMeL]VP[dNMeL]V[NMeI][dA])) this time 6.36

Same question, CC(C)C[C@H]1NC(=O)[C@@H](C(C)C)NC(=O)[C@H](CC(C)C)N(C)C(=O)[C@@H](Cc2ccccc2)NC(=O)[C@H](CC(C)C)N(C)C(=O)[C@H]2CCCN2C(=O)[C@@H]2CCCN2C(=O)[C@H]2CCCN2C(=O)[C@@H](C(C)C)NC(=O)[C@H]2CCCN2C1=O [Design D10.42, vlpvpPp*Lf*L] (cyclo([dP][NMeL][dF][NMeL][dV][dL][dP][dV][dP]P)) this time 0.71

Same question, CC[C@@H](C)[C@H]1NC(=O)[C@@H](CC(C)C)N(C)C(=O)[C@@H]2CCCN2C(=O)[C@@H]([C@H](C)CC)NC(=O)[C@@H](CC(C)C)NC(=O)[C@@H](CC(C)C)N(C)C(=O)[C@@H]2CCCN2C(=O)[C@@H](C(C)C)NC1=O [Design D8.8, P*lliP*liv] (cyclo(P[dNMeL][dI][dV]P[dNMeL][dL][dI])) this time 5.9

Same question, CC(C)C[C@@H]1NC(=O)[C@@H]2CCCN2C(=O)[C@H]2CCCN2C(=O)[C@@H](C)N(C)C(=O)[C@@H](CC(C)C)N(C)C(=O)[C@H](C(C)C)NC(=O)[C@@H](C)N(C)C(=O)[C@H]2CCCN2C(=O)[C@@H]2CCCN2C1=O [Design D9.22, p*aV*l*apPLP] (cyclo(LP[dP][dNMeA]V[dNMeL][dNMeA][dP]P)) this time 0.189
